Origin of the recorded values: patent US12139508B2

MEASURED ON: GABA-A receptor
EXPERIMENT DESCRIPTION: 35S-TBPS binding assay (GABAA receptor binding ability test)
CONDITION NOTES: rat cerebral cortex cell membrane, 5 μM GABA, 2 nM 35S-TBPS; read-out: 35S-TBPS bindng test: IC50 on inhibiting the TBPS binding activity
EXPERIMENTAL READOUT: pIC50
To interpret pIC50, take it as minus log10 of a concentration measured in moles per litre.

Consider the following illustrative entries.
molecule="Cc1c(C#N)cnn1CC(=O)[C@H]1[C@H]2C[C@H]2[C@H]2[C@@H]3CC[C@@H]4C[C@](C)(O)CC[C@@H]4[C@H]3CC[C@@]21C [Example 37B]" recorded_measurement=7.81
molecule=C[C@@]1(O)CC[C@H]2[C@H](CC[C@@H]3[C@@H]2CC[C@@]2(C)[C@H]3[C@@H]3C[C@@H]3[C@@H]2C(=O)Cn2cc(-c3ncco3)cn2)C1 recorded_measurement=7.80
molecule=C[C@@]1(O)CC[C@H]2[C@H](CC[C@@H]3[C@@H]2CC[C@@]2(C)[C@H]3[C@H](C3CC3)C[C@@H]2C(=O)Cn2nc(C#N)cc2C#N)C1 recorded_measurement=7.55
molecule=C[C@@H]1C[C@H](C(=O)Cn2ccc(C#N)n2)[C@@]2(C)CC[C@H]3[C@@H](CC[C@@H]4C[C@](C)(O)CC[C@@H]43)[C@H]12 recorded_measurement=8.09

Now look at this entry.
Asked: Note down pIC50 recorded for CC[C@@H]1C[C@H](C(=O)Cn2ccc(C(F)(F)F)n2)[C@@]2(C)CC[C@H]3[C@@H](CC[C@@H]4C[C@](C)(O)CC[C@@H]43)[C@H]12
Given back: 7.60
